Tested on: KM12 colon
test_summary: NCI-60 one-dose screen, 48 h (100 = growth as untreated, 0 = no growth, -100 = all killed)
measurement_context: 10 µM unless noted
This is part of a sample that, as a whole, favours compounds with a hit. Of some 83,000 tested, about 20% had one in any assay.
Catalogue of growth values
State the answer as a number, implicitly in %.

Which growth reading was recorded for the compound "CCCCCCCOc1ccc(S(=O)(=O)Nc2ccc(C)c(F)c2C(=O)O)cc1" ?
97.1

Which growth reading was recorded for the compound "COc1ccc2[nH]c(O)c(N=Nc3nc(-c4ccc(C#N)cc4)cs3)c2c1" ?
78.4

Which growth reading was recorded for the compound "NC(=Nc1ccc(OCCCCCCCCn2cnnn2)cc1)c1ccccc1" ?
10.5

Which growth reading was recorded for the compound "COc1ccc(NC(=O)Nc2nc3ccc([N+](=O)[O-])cc3s2)cc1" ?
3.81

Which growth reading was recorded for the compound "Cc1ccc(/C=C/C(=O)c2ccc(S(=O)(=O)NCCNc3nc(N(C)C)nc(N4CCOCC4)n3)cc2)cc1" ?
21.1
